# credit: ChEMBL document CHEMBL1135329

tested on: Enterococcus faecalis; assay: Antimicrobial activity was determined against vancomycin-resistant Enterococcus faecalis (VREF 51559); format: functional
Threshold-based label: MIC under 2 mg/L gives Criterion met, MIC not under 2 mg/L gives Criterion not met.

[[record]]
record_smiles = "Cn1cc(NC(=O)c2cc(NC(=O)c3cc(NC(=O)c4nsc(NCCCCN)c4Cl)cn3C)cn2C)cc1C(=O)NCCN1CCOCC1"
answer_label = "Criterion not met"

[[record]]
record_smiles = "Cn1cc(NC(=O)c2cc(NC(=O)c3cc(NC(=O)c4nsc(NCC5CC5)c4Cl)cn3C)cn2C)cc1C(=O)NCCN1CCOCC1"
answer_label = "Criterion met"

[[record]]
record_smiles = "CN(C)CCCCNC(=O)c1cc(NC(=O)c2cc(NC(=O)c3cc(NC(=O)c4nsc(NCCCN)c4Cl)cn3C)cn2C)cn1C"
answer_label = "Criterion met"

[[record]]
record_smiles = "Cn1cc(NC(=O)c2cc(NC(=O)c3cc(NC(=O)c4nsc(NCCN5CCOCC5)c4Cl)cn3C)cn2C)cc1C(=O)NCCCO"
answer_label = "Criterion not met"

[[record]]
record_smiles = "CCOCCCNC(=O)c1cc(NC(=O)c2cc(NC(=O)c3cc(NC(=O)c4nsc(NCCN5CCOCC5)c4Cl)cn3C)cn2C)cn1C"
answer_label = "Criterion not met"

